Reported IC50 values follow for various compounds
System: ALK
EXPERIMENTAL PROTOCOL: In vitro transcription-translation (IVTT) reporter assay, ALK test sequence
Assay type: biochemical
CONDITIONS USED: HeLa S3 lysate, sfGFP/mCherry ratio, 2 hrs at 30° C.

Completed entries (count: 5):
COMPOUND	TESTED TARGET	MEASURED VALUE
COc1ccc(C[C@H]2NC[C@H](O)[C@H]2OC(=O)C2CSSC2)cc1	ALK	> 30 µM
COc1ccc(C[C@H]2NC[C@H](O)[C@H]2OC(=O)CCN2CCNCC2)cc1	ALK	< 10 µM
COc1ccc(C[C@H]2NC[C@H](O)[C@H]2OC(=O)C[C@@H]2CCNC2)cc1	ALK	< 10 µM
CC(=O)O[C@@H]1[C@@H](O)CN[C@@H]1Cc1ccc(-c2nn[nH]n2)cc1 [V187008, acetate; trifluoroacetic acid]	ALK	< 10 µM
COc1ccc(C[C@H]2NC[C@H](O)[C@H]2OC(=O)CCN2CC(=O)N(C)CC2=O)cc1	ALK	20 to 30 µM

# query: IC50 of entry "COc1ccc(C[C@H]2NC[C@H](O)[C@H]2OC(=O)c2ccc(S(=O)(=O)N(C)C)cc2)cc1"
> 30 µM

Param item = "COc1ccc(C[C@H]2NC[C@H](O)[C@H]2OC(=O)Cc2cnc[nH]2)cc1" ; retrieve measured IC50.
< 10 µM

Reported IC50, compound "COc1ccc(C[C@H]2NC[C@H](O)[C@H]2OC(=O)CCCCCO)cc1" : ____
< 10 µM

====

System: ALK
EXPERIMENTAL PROTOCOL: In vitro transcription-translation (IVTT) reporter assay, ALK test sequence
Format: biochemical
CONDITIONS USED: HeLa S3 lysate, sfGFP/mCherry ratio, 2 hrs at 30° C.
REPORTED PROPERTY: IC50

MOLECULE	MEASURED VALUE
COc1ccc(C[C@H]2NC[C@H](O)[C@H]2OC(=O)Cc2noc(C)n2)cc1	< 10 µM
COc1ccc(C[C@H]2NC[C@H](O)[C@H]2OC(=O)CC[C@H]2CNCCN2)cc1	> 30 µM
COc1ccc(C[C@H]2NC[C@H](O)[C@H]2OC(=O)C2CNC2)cc1	20 to 30 µM
COc1ccc(C[C@H]2NC[C@H](O)[C@H]2OC(=O)C2CN(C(=O)C3CCOCC3)C2)cc1	> 30 µM
COc1ccc(C[C@H]2NC[C@H](O)[C@H]2OC(=O)CCC(F)(F)F)cc1	< 10 µM

Item: "COc1ccc(C[C@H]2NC[C@H](O)[C@H]2OC(=O)CC[C@@H]2NC(=O)CNC2=O)cc1" Test system: ALK Read-out: IC50 Value: ?
< 10 µM

// lookup IC50 | system=ALK | key= "COc1ccc(C[C@H]2NC[C@H](O)[C@H]2OC(=O)CCCN2CCNCC2)cc1"
< 10 µM

Field: IC50 (ALK). Entry: COc1ccc(C[C@H]2NC[C@H](O)[C@H]2OC(=O)C2CCOC2)cc1 (stereo partly shown)
< 10 µM

Write down the reported IC50 of "COc1ccc(C[C@H]2NC[C@H](O)[C@H]2OC(=O)COCc2ccc3nsnc3c2)cc1" , test system: ALK.
< 10 µM

What reported IC50 corresponds to "COc1ccc(C[C@H]2NC[C@H](O)[C@H]2OC(=O)CNc2c(NCc3ccccc3)c(=O)c2=O)cc1" on ALK?
< 10 µM

Could you share what IC50 was measured for "COc1ccc(C[C@H]2NC[C@H](O)[C@H]2OC(=O)CCN2CC(=O)NC(=O)C2)cc1" , tested on ALK?
< 10 µM

Lab request: please report IC50 under test system ALK for COc1ccc(C[C@H]2NC[C@H](O)C2OC(=O)COCc2ccc3nonc3c2)cc1 (stereo partly shown)
< 10 µM

Find IC50 (ALK) for the entry "COc1ccc(C[C@H]2NC[C@H](O)[C@H]2OC(=O)CCc2cscn2)cc1"
< 10 µM

====

Documented IC50 across a set of compounds
System: ALK
EXPERIMENTAL PROTOCOL: In vitro transcription-translation (IVTT) reporter assay, ALK test sequence
Format: biochemical
CONDITIONS USED: HeLa S3 lysate, sfGFP/mCherry ratio, 2 hrs at 30° C.
Excerpt: All reporter constructs have been cloned into the pT7CFE1-CHis plasmid (ThermoFisher #88860) using Gibson assembly procedures (NEB #E2611L). […] All reporters are designed to be inserted at the MCS to include a red fluorescent protein (mCherry), P2A self-cleaving peptide which releases the preceding mCherry protein product, and a fusion open reading frame containing a 3×FLAG epitope, a peptide sequence of interest (TEST), and green fluorescent protein (sfGFP). […]

// known answers, use as guide
COMPOUND	IC50
COc1ccc(C[C@H]2NC[C@H](O)[C@H]2OC(=O)[C@H]2CN(Cc3ccccc3)CC23CNC3)cc1	> 30 µM
COc1ccc(C[C@H]2NC[C@H](O)[C@H]2OC(=O)c2ccc(C(=O)C(F)(F)F)cc2)cc1	> 30 µM
COc1ccc(C[C@H]2NC[C@H](O)[C@H]2OC(=O)COCc2ccon2)cc1	< 10 µM
COc1ccc(C[C@H]2NC[C@H](O)[C@H]2OC(=O)[C@@H]2CN(Cc3ccccc3)CC23CNC3)cc1	> 30 µM
COc1ccc(C[C@H]2NC[C@H](O)[C@H]2OC(=O)[C@@H]2CCCO2)cc1	< 10 µM

Looking for the measured IC50 of "COc1ccc(C[C@H]2NC[C@H](O)[C@H]2OC(=O)CCc2cn(C)cn2)cc1" , can you help?
< 10 µM

Query (compound): COc1ccc(C[C@H]2NC[C@H](O)[C@H]2OC(=O)C2CCO2)cc1 (some centres unmarked) ; field requested: IC50
< 10 µM

Using the record for "COc1ccc(C[C@H]2NC[C@H](O)[C@H]2OC(=O)c2ccc(F)c(S(=O)(=O)N(C)C)c2)cc1" , report its IC50.
> 30 µM

====

System: ALK
EXPERIMENTAL PROTOCOL: In vitro transcription-translation (IVTT) reporter assay, ALK test sequence
Type: biochemical
CONDITIONS USED: HeLa S3 lysate, sfGFP/mCherry ratio, 2 hrs at 30° C.
REPORTED PROPERTY: IC50

Give its IC50 value. Item: COc1ccc(C[C@H]2NC[C@H](O)[C@H]2OC(=O)CC(C)C)cc1 [V187035]
< 10 µM

Return reported IC50; argument: COc1ccc(C[C@H]2NC[C@H](O)[C@H]2OC(=O)CC2CC(F)(F)C2)cc1 [V187043, trifluoroacetic acid]
< 10 µM

====

Tested on: KATO-III
EXPERIMENTAL PROTOCOL: Cell viability (CellTiter-Fluor), KATO-III
Assay type: cell-based
CONDITIONS USED: Homo sapiens, 24-72 hrs
We begin with a simple list: items and their reported IC50.

Examples from the recorded data:
COMPOUND	TESTED TARGET	MEASURED VALUE
COc1ccc(C[C@H]2NC[C@H](O)[C@H]2OC(=O)CC2CC(F)(F)C2)cc1 [V187043, trifluoroacetic acid]	KATO-III	250 to 1000 nM
COc1ccc(C[C@H]2NC[C@H](O)[C@H]2OC(=O)C[C@@H]2CCNC2)cc1 [V187690]	KATO-III	1000 to 4000 nM
COc1ccc(C[C@H]2NC[C@H](O)[C@H]2OC(=O)Cc2cscn2)cc1 [V187049]	KATO-III	< 250 nM

As a next step, examine the compound that follows.
Please give the measured IC50 for this compound: COc1ccc(CC2NCC(O)C2OC(=O)CC2CC2(F)F)cc1 (stereo not shown) [V187061]
1000 to 4000 nM

====

Test system: ALK
EXPERIMENTAL PROTOCOL: In vitro transcription-translation (IVTT) reporter assay, ALK test sequence
Type: biochemical
CONDITIONS USED: HeLa S3 lysate, sfGFP/mCherry ratio, 2 hrs at 30° C.
Listed below: IC50 values for each entry.

SMILES STRUCTURE	IC50
COc1ccc(C[C@H]2NC[C@H](O)[C@H]2OC(=O)CNC2CC2)cc1	< 10 µM
COc1ccc(C[C@H]2NC[C@H](O)[C@H]2OC(=O)CN2CC(F)(F)C2)cc1	< 10 µM
COc1ccc(C[C@H]2NC[C@H](O)[C@H]2OC(=O)C2(OCc3ccccc3)CNC2)cc1	> 30 µM

Shift focus to the following entry.
Fill blank: measured IC50 of the compound "COc1ccc(C[C@H]2NC[C@H](O)[C@H]2OC(=O)Cc2ccc3ccccc3c2)cc1" is ____.
< 10 µM

====

Tested on: ALK
EXPERIMENTAL PROTOCOL: In vitro transcription-translation (IVTT) reporter assay, ALK test sequence
Format: biochemical
CONDITIONS USED: HeLa S3 lysate, sfGFP/mCherry ratio, 2 hrs at 30° C.
pIC50: −log10 of the molar value.
Listed below: pIC50 values for each entry.

COMPOUND	TESTED TARGET	pIC50
COc1ccc(C[C@H]2NC[C@H](O)[C@H]2OC(=O)CCn2ccc(=O)[nH]c2=O)cc1	ALK	> 5.00
COc1ccc(C[C@H]2NC[C@H](O)[C@H]2OC(=O)CCN2CCN(C)CC2)cc1	ALK	< 4.52
COc1ccc(C[C@H]2NC[C@H](O)[C@H]2OC(=O)Cc2cccnc2)cc1	ALK	> 5.00
COc1ccc(C[C@H]2NC[C@H](O)[C@H]2OC(=O)C2CC(F)(F)C2)cc1	ALK	> 5.00
CC(=O)O[C@@H]1[C@@H](O)CN[C@@H]1Cc1ccc(Br)cc1 [V187010, acetate; trifluoroacetic acid]	ALK	> 5.00

What value of pIC50 has been reported for the following compound? "COc1ccc(C[C@H]2NC[C@H](O)[C@H]2OC(=O)C[C@H]2CCNC2)cc1"
> 5.00

Bench note: what pIC50 did "COc1ccc(C[C@H]2NC[C@H](O)[C@H]2OC(=O)C23CC(F)(C2)C3)cc1" show?
> 5.00

Recorded pIC50 of "COc1ccc(C[C@H]2NC[C@H](O)[C@H]2OC(=O)CC[C@@H]2NC(=O)C3(CNC3)NC2=O)cc1" , please.
< 4.52

Which pIC50 is reported for this compound? "COCCOCCOCC(=O)O[C@@H]1[C@@H](O)CN[C@@H]1Cc1ccc(OC)cc1"
> 5.00

Recorded pIC50 of COc1ccc(C[C@H]2NC[C@H](O)[C@H]2OC(=O)C2CC(=O)N2)cc1 (stereo partly drawn) , please.
> 5.00

Looking for the measured pIC50 of "COc1ccc(C[C@H]2NC[C@H](O)[C@H]2OC(=O)CCNC(C)C)cc1" , can you help?
4.70 to 5.00

Which pIC50 value is on record for CC(=O)O[C@@H]1[C@@H](O)CN[C@@H]1Cc1ccc(Cl)cc1 [V187009, acetate; trifluoroacetic acid] ?
> 5.00

Sample "COc1ccc(C[C@H]2NC[C@H](O)[C@H]2OC(=O)CNC2CC(F)(F)C2)cc1" — what was its pIC50?
> 5.00

Look up pIC50 for this compound: "COc1ccc(C[C@H]2NC[C@H](O)[C@H]2OC(=O)C(C)(C)O)cc1"
> 5.00

Recorded pIC50 of "CC(=O)O[C@@H]1[C@@H](O)CN[C@@H]1Cc1ccccc1" , please.
> 5.00

Recorded pIC50 for "COc1ccc(C[C@H]2NC[C@H](O)[C@H]2OC(=O)CCC2CCOCC2)cc1" , please?
> 5.00

Fill blank: measured pIC50 of the compound "COc1ccc(C[C@H]2NC[C@H](O)[C@H]2OC(=O)CCN2C(=O)CNC2=O)cc1" is ____.
> 5.00

pIC50 lookup needed for "COc1ccc(C[C@H]2NC[C@H](O)[C@H]2OC(=O)[C@H]2CC[C@@H](O)CC2)cc1" , thanks.
4.52 to 4.70
